Where do the numbers come from? From PubChem BioAssay (NCATS).

The following compounds are listed with their measured activity change, negative = inhibition values.
- assay procedure: NFAT Signaling Pathway (AID 444);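 note: carbachol stimulus at about its EC50 of 1 µM final; % is set by controls: 0 for no effect and ±100 for the full control effect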
- condition: Jurkat NFAT-bla M1, carbachol, beta-lactamase ratio, 5 h; at 17.2 µM (top of the series) unless noted
Inconclusive results are not listed.
Provide the reading as a plain figure in %.

Example cases with answers are listed next.
{"compound": "CC(C(=O)N1CCOCC1)N1C(=O)c2ccccc2C1=O (stereo unspecified)", "unit descriptor": "%", "activity change, negative = inhibition": -4.66}
{"compound": "Cc1ccc(C(C)C)c(OCCNc2nc3c(c(=O)n(C)c(=O)n3C)n2C)c1", "unit descriptor": "%", "activity change, negative = inhibition": 13.4}
{"compound": "C(=N\\n1cnnc1)/c1cccc(Oc2ccccc2)c1", "unit descriptor": "%", "activity change, negative = inhibition": -2.39}

Data point: COCCN(C(=O)Nc1ccccc1)c1ccccc1C ; activity change, negative = inhibition = -0.712

Entry under test: Cc1cccc(C)c1OCC(O)CNS(=O)(=O)c1ccccc1C(=O)N1CCOCC1 (stereo unspecified) . Its activity change, negative = inhibition was 9

compound CCCCc1nc(N2CCOCC2)c(C#N)c2c1COC(C)(C)C2 , activity change, negative = inhibition observed: 16.6

Recorded result, Cc1c(N2C(=O)SC(CC(=O)O)C2=O)c(=O)n(-c2ccccc2)n1C (stereo unspecified) , activity change, negative = inhibition: 10.6

// recorded activity change, negative = inhibition for COCCn1c(SCc2c(F)cccc2Cl)nc2c1c(=O)[nH]c(=O)n2C : -0.711

activity change, negative = inhibition in this record for COc1cccc(-c2nnc3sc(-c4ccc(Cl)cc4)nn23)c1 : -1.08

Record CCOC(=O)c1[nH]c2ccc(OC)cc2c1NC(=O)CN1CCN(c2ccccn2)CC1 , field activity change, negative = inhibition: -9.84

The compound identified as COc1ccc(OCC(=O)OCCN(C)C)cc1 registered its activity change, negative = inhibition at 11.6

Form: compound = Cc1c(C(=O)O)sc(=S)n1-c1ccccc1 ; activity change, negative = inhibition = 2.74

====

- assay procedure: Cell Viability - Mesenchymal (AID 546);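 note: cells exposed to compound for 40 hours before reading; 0% = DMSO only and -100% = 100 µM tamoxifen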
- condition: mesenchymal cells viability, qHTS
Records with an inconclusive call do not appear. Activity calls are given as the source filed them. Calls come from the whole dose curve; as a rule, active = well fitted cell-killing curve with a large enough effect; inconclusive = small, poorly fitted or top-dose-only effect; inactive = flat fitted curve, though single readings scatter.
Bench note: report the call from t = active, f = inactive

Task item: Dear all, I need the recorded test outcome for O=[N+]([O-])c1cc([N+](=O)[O-])c2ccc(S(=O)(=O)O)cc2c1O , thank you.
Reply: f

Task item: Assay result, entry CN(C)c1ccc(C2(c3ccc(N(C)C)cc3)OC(=O)c3cc(N(C)C)ccc32)cc1 — outcome?
Reply: f

Task item: Recorded test call requested for C/C=C1\C(=O)C[C@H]2[C@@H]3CCC4=CC(=O)CC[C@]4(C)[C@H]3CC[C@]12C
Reply: f

====

- assay procedure: qHTS profiling for inhibitors of Plasmodium falciparum proliferation (AID 504749);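 note: 0% = DMSO vehicle and full inhibition = artemisinin control; nearly all actives have a fitted effect of over 60% in size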
- condition: P. falciparum in erythrocytes, SYBR Green DNA, 72 h; at 28.7 µM (top of the series); parasite line B
Records with an inconclusive call do not appear.
Quick list: activity, negative = inhibition per entry.
Please give a number only; it is taken to be in %.

Below: 3 compounds and their reported activity, negative = inhibition.
{"compound": "CC1OC(OC2C(O)CC(OC3C(O)CC(OC4CCC5(C)C(CCC6C5CCC5(C)C(C7=CC(=O)OC7)CCC65O)C4)OC3C)OC2C)CC(O)C1O (centres undefined)", "unit descriptor": "%", "activity, negative = inhibition": 5.82}
{"compound": "C/C=C1/NN(CCCN2CCN(c3cccc(Cl)c3)CC2)C(=O)N1CCOc1ccccc1", "unit descriptor": "%", "activity, negative = inhibition": 7.5}
{"compound": "CCCCN1CC(O)C(O)C(O)C1CO (centres undefined)", "unit descriptor": "%", "activity, negative = inhibition": 1.06}

The reported activity, negative = inhibition of the compound CCCC[C@H](O)c1ccccc1 was -1.87

The reported activity, negative = inhibition of the compound OC[C@@H]1O[C@](CO)(O[C@H]2O[C@H](CO)[C@@H](O)[C@H](O)[C@H]2O)[C@H](O)[C@H]1O was 7.05

activity, negative = inhibition in this record for OCC1OC(O)C(O)C(O)C1O (centres undefined) : 8.64

GET /value?item= CC(CN1CC(=O)NC(=O)C1)N1CC(=O)NC(=O)C1 (centres undefined) &field=activity, negative = inhibition returns 0.945
